Measured values drawn from patent US20260098059A1 for this set.

binders and their reported Wnt Reporter EC50
- target: T1, β-catenin (UniProt P35222 134-665, limits assumed, biotinylated in the SPR and plate assays)
- T1 sequence (looked up): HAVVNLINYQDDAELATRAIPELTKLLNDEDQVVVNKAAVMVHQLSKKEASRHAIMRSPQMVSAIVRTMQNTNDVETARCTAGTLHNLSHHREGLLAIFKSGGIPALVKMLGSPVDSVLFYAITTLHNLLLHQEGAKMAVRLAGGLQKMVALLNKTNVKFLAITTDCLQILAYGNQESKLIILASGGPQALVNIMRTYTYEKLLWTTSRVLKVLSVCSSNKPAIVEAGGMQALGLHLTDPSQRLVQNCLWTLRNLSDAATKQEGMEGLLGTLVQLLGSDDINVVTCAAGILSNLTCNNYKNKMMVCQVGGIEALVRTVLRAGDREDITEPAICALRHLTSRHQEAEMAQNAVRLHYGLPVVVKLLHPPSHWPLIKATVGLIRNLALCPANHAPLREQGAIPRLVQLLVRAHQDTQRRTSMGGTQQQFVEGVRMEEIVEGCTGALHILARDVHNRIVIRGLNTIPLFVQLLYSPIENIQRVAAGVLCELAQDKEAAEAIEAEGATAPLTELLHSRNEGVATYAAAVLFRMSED
- test: cell-based or functional assay
Where no end group is shown, it is not given here.

binder="RSRMWFLISFW-NH2 [SEQ ID NO: 84]" reported_property="Wnt Reporter EC50" result="> 30 µM"
binder="H-MWFLICAWG-OH [SEQ ID NO: 211]" reported_property="Wnt Reporter EC50" result="≤ 7.5 µM"
binder="H-MSRMWFLISFWG-OH [SEQ ID NO: 41]" reported_property="Wnt Reporter EC50" result="≤ 7.5 µM"
binder="H-MWFLISFWEG-OH [SEQ ID NO: 47]" reported_property="Wnt Reporter EC50" result="≤ 7.5 µM"

Recorded Wnt Reporter EC50 for Ac-MWFLICFWG-OH [SEQ ID NO: 198] , please?
≤ 7.5 µM
